Target: human 5HT1A-serotonergic receptor (Homo sapiens, UniProt P08908)
Construct: expressed in transfected cells; host or cells: HeLa (human), stably transfected; membranes
Sequence (P08908 1-422): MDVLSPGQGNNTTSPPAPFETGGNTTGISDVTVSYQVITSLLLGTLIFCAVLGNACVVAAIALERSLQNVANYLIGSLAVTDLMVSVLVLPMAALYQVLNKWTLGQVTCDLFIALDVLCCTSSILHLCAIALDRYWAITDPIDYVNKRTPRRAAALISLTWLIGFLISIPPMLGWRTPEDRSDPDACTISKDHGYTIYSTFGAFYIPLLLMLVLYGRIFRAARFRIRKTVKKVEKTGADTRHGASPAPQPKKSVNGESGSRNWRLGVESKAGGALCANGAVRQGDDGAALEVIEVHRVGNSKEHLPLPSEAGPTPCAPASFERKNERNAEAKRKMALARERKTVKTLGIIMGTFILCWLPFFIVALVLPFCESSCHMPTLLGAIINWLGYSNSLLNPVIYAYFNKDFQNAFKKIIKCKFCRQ
Assay: Radioligand binding to recombinant 5-HT1A receptor ([3H]8-OH-DPAT, HeLa cell membranes)
Details: 1 nM [3H]8-OH-DPAT; Ki from IC50 by the Cheng equation; read-out: Ki (nM), binding affinity for 5HT1A receptor
Readout type: Ki (nM)
One number for each entry, in nM.

What value of measured Ki is listed for O=CNC(C1CCCCC1)C(CCN1CCN(c2cccc3[nH]ccc23)CC1)c1ccccc1F (centres unmarked) ?
2.3

Now the compound COc1ccccc1N1CCN(CCC(C(=NO)C2CCCCC2)c2ccccc2F)CC1 (mixture of isomers)
0.16

Entry COc1ccccc1N1CCN(CC[C@H](c2ccccc2F)[C@@H](NC(=S)N(C)C)C2CCCCC2)CC1 (single isomer, unassigned) [Example 24B] please
4.2

Note, next up: NC(C1CCCCC1)C(CCN1CCN(c2cccc3[nH]cnc23)CC1)c1ccccc1F (centres unmarked)
0.3

Give Ki for all compounds that follow.
1. CNC(C1CCCCC1)C(CCN1CCN(c2cccc3c2OCCO3)CC1)c1ccccc1F (centres unmarked)
2. COc1ccc(Br)c(CN2CCN(CCC(c3ccccc3F)C(NC=O)C3CCCCC3)CC2)c1 (centres unmarked)
3. CC(=NO)C(CCN1CCN(c2ccccc2OCC(F)(F)F)CC1)c1ccccc1F (centres unmarked)
4. CC(=O)N(C)C(C1CCCCC1)C(CCN1CCN(c2cccc3c2OCCO3)CC1)c1ccccc1F (centres unmarked)

0.3
0.5
6.03
0.9

From: patent US20070270436A1
